MEASUREMENT DESCRIPTION: Proton dissociation constant pKa was determined at 25 degree C
Type: physicochemical
Listed here are molecules together with their documented pKa.
REPORTED PROPERTY: pKa

[[record]]
record_smiles = "COc1ccc(Cc2cc(=O)c3ccc(O)cc3o2)cc1"
obs_value = 7.35

[[record]]
record_smiles = "O=c1cc(Cc2ccc(O)cc2)oc2ccc(O)cc12"
obs_value = 8.89


----------
MEASUREMENT DESCRIPTION: The compound was tested for the pKa (+/-SD) values at 25 degree C
Format: physicochemical
REPORTED PROPERTY: pKa

[[record]]
record_smiles = "O=c1cc(-c2ccccc2)oc2cc(O)c([N+](=O)[O-])cc12"
obs_value = 5.3


----------
SYSTEM TESTED: Aldo-keto reductase family 1 member B1 (Bos taurus, UniProt P16116)
MEASUREMENT DESCRIPTION: Inhibition of ALR2 (aldose reductase) of bovine lens
pIC50: −log10 of the molar value.
REPORTED PROPERTY: pIC50

[[record]]
record_smiles = "O=c1cc(-c2ccc(O)c(O)c2)oc2cc(O)ccc12"
system_tested = "Aldo-keto reductase family 1 member B1 (Bos taurus, UniProt P16116)"
obs_value = 5.19

[[record]]
record_smiles = "O=c1c(Cc2ccc(O)cc2)coc2cc(O)ccc12"
system_tested = "Aldo-keto reductase family 1 member B1 (Bos taurus, UniProt P16116)"
obs_value = 4.22

[[record]]
record_smiles = "O=c1cc(Cc2ccc(O)c(O)c2)oc2cc(O)ccc12"
system_tested = "Aldo-keto reductase family 1 member B1 (Bos taurus, UniProt P16116)"
obs_value = 5.50

[[record]]
record_smiles = "O=c1cc(-c2ccccc2)oc2cc(O)c([N+](=O)[O-])cc12"
system_tested = "Aldo-keto reductase family 1 member B1 (Bos taurus, UniProt P16116)"
obs_value = 5.41

[[record]]
record_smiles = "O=c1cc(-c2ccc(O)c(O)c2)oc2cc(O)cc(O)c12"
system_tested = "Aldo-keto reductase family 1 member B1 (Bos taurus, UniProt P16116)"
obs_value = 5.02

